Values of pIC50 reported for p38 MAPKα (Homo sapiens (Human)) appear below.
Answers are plain numbers, as −log10 of the molar value.

Use these answered entries as a reference point.
- Test smiles: "COc1cc(Nc2nccc(Oc3ccc(NC(=O)Nc4cc(C(C)C)nn4-c4ccc(C)cc4)c4ccccc34)n2)cc(OCCOCCOCCO)c1"
  pIC50: 7.59
- Test smiles: "COc1cc(Nc2nccc(Oc3ccc(NC(=O)Nc4cc(C(C)C)nn4-c4ccc(C)cc4)c4ccccc34)n2)cc(SCCO)c1"
  pIC50: 6.94
- Test smiles: "COCCOCCOCCOCCOc1cc(Nc2nccc(Oc3ccc(NC(=O)Nc4cc(C(C)C)nn4-c4ccc(C)cc4)c4ccccc34)n2)cc(OC)c1"
  pIC50: 7.52
- Test smiles: "COc1cc(Nc2nccc(Oc3ccc(NC(=O)Nc4cc(C(C)(C)C)nn4-c4ccc(C)cc4)c4ccccc34)n2)cc(SCCCO)c1"
  pIC50: 6.71
- Test smiles: "COc1cc(Nc2nccc(Oc3ccc(NC(=O)Nc4cc(C(C)C)nn4-c4ccc(C)cc4)c(Cl)c3Cl)n2)cc(OCCN2CCOCC2)c1"
  pIC50: 6.47
- Test smiles: "COc1cc(Nc2nccc(Oc3ccc(NC(=O)Nc4cc(C(C)(C)C)nn4-c4ccc(C)cc4)c4ccccc34)n2)cc(SCCO)c1"
  pIC50: 6.70
- Test smiles: "COCCOCCOCCOc1cc(Nc2nccc(Oc3ccc(NC(=O)Nc4cc(C(C)(C)C)nn4-c4ccc(C)cc4)c4ccccc34)n2)cc(OC)c1Cl"
  pIC50: 6.42
- Test smiles: "COCCOCCOCCOc1cc(Nc2cc(Oc3ccc(NC(=O)Nc4cc(C(C)(C)C)nn4-c4ccc(C)cc4)c4ccccc34)ccn2)cc(OC)c1"
  pIC50: 6.85

Report pIC50 for each item below.
1. COCCOCCOCCOCCOCCOCCOCCOc1cc(Nc2nccc(Oc3ccc(NC(=O)Nc4cc(C(C)(C)C)nn4-c4ccc(C)cc4)c4ccccc34)n2)cc(OC)c1
2. COc1cc(Nc2nccc(Oc3ccc(NC(=O)Nc4cc(C(C)C)nn4-c4ccc(C)cc4)c4ccccc34)n2)cc(S(=O)(=O)C2CC2)c1
3. COc1ccc(-n2nc(C(C)(C)C)cc2NC(=O)Nc2ccc(Oc3ccnc(Nc4cc(OC)cc(S(=O)(=O)C5CC5)c4)n3)c3ccccc23)cc1
4. COCCOCCOCCOc1cccc(Nc2nccc(Oc3ccc(NC(=O)Nc4cc(C(C)C)nn4-c4ccc(C)cc4)c4ccccc34)n2)c1

7.28
6.99
6.52
7.59

----------
Values of pIC50 reported for c-Src (Homo sapiens (Human), UniProt P12931) appear below.
Numbers only, as −log10 of the molar value.

Use these answered entries as a reference point.
- Test smiles: "COc1cc(Nc2nccc(Oc3ccc(NC(=O)Nc4cc(C(C)C)nn4-c4ccc(C)cc4)c(Cl)c3Cl)n2)cc(S(=O)(=O)C2CC2)c1"
  pIC50: 7.28
- Test smiles: "Cc1ccc(-n2nc(C(C)C)cc2NC(=O)Nc2ccc(Oc3ccnc(Nc4cccc(OS(C)(=O)=O)c4)n3)c3ccccc23)cc1"
  pIC50: 7.70

Noted pIC50 for COCCOCCOCCOCCOCCOc1cc(Nc2nccc(Oc3ccc(NC(=O)Nc4cc(C(C)C)nn4-c4ccc(C)cc4)c4ccccc34)n2)cc(OC)c1 , tested on c-Src (Homo sapiens (Human), UniProt P12931): 8.40
